Measured ELISA S/N(SA), listed per entry.
# study system: Recombinant Human CTLA4-Fc chimera (R&D systems) (human) (UniProt P16410)
# procedure details: ELISA, signal over SA
The answer should be a number; do not append a unit.

Example entries and their recorded answers appear below.
binder	recorded value
GGCCHPFLPIYSVHFCAS (peptide, not shown: large carriers; small tags and cut ends) [C4m#19-5th2w-NNS6-34]	5
GGCAHPFLPIFSPHFCPF (peptide, not shown: large carriers; small tags and cut ends) [C4m#19-5th2w-NNS6-3]	18.4
GGCRHPFLPIFSVHFCPF (peptide, not shown: large carriers; small tags and cut ends) [C4m#19-5th2w-NNS6-66]	4.4

Please report the recorded ELISA S/N(SA) for GGCLHPFLPIRSVHFCPF (peptide, not shown: large carriers; small tags and cut ends) [C4m#19-5th4w-NN6-15] .
39.9

Please report the recorded ELISA S/N(SA) for GGCSHPYLPIHSRHFCLS (peptide, not shown: large carriers; small tags and cut ends) [C4m3127-4th-NNS6-70] .
4.6

Please report the recorded ELISA S/N(SA) for GGCFHPYLPIWSLHFCRS (peptide, not shown: large carriers; small tags and cut ends) [C4m#19-5th2w-NNS6-86] .
7.7

Please report the recorded ELISA S/N(SA) for GGCLHPFLPIVSIHFCSA (peptide, not shown: large carriers; small tags and cut ends) [C4m#19-5th2w-NNS6-26] .
5.8
